System: A431
Assay: whole-cell filipin (free cholesterol) integrated intensity, Z-score; higher = more cholesterol staining
Conditions: compound concentration in added solution (µM; 5 µl added to 20 µl cells): 10; 18 h
Where a name gives a salt, the structure may show the parent alone.
Binary call on whole-cell filipin (z-score): label 1 from 0.5 upward, label 0 beneath that.

| compound | group_label |
| --- | --- |
| CCCCCN(CCCCC)C(=O)C(CCC(=O)O)NC(=O)c1ccc(Cl)c(Cl)c1 (configuration not stated) [Lorglumide sodium salt] | label 0 |
| C[C@]12CCC(=O)C=C1C=C[C@@H]1[C@@H]2CC[C@@]2(C)[C@H]1CC[C@@]21CCC(=O)O1 [Canrenone] | label 0 |
| CC(CN(C)C)CN1c2ccccc2CCc2ccccc21 (configuration not stated) [Trimipramine maleate salt] | label 1 |
| O=C(NCC1CCCCN1)c1cc(OCC(F)(F)F)ccc1OCC(F)(F)F (configuration not stated) [Flecainide acetate] | label 1 |
| C[C@]12CC[C@@H]3c4ccc(OS(=O)(=O)O)cc4CC[C@H]3[C@@H]1CCC2=O [Estropipate] | label 0 |

Does whole-cell filipin (z-score) meet or surpass 0.5 for CC(=O)OCC(=O)[C@@]12OC3(CCCC3)O[C@@H]1C[C@H]1[C@@H]3CCC4=CC(=O)C=C[C@]4(C)[C@@]3(F)[C@@H](O)C[C@@]12C [Amcinonide] ?
label 0

Now give it for CCCCC(=O)O[C@H]1CC[C@H]2[C@@H]3CCc4cc(O)ccc4[C@H]3CC[C@]12C [Estradiol Valerate] too.
label 0

----------
Listed here are molecules together with their documented filipin (z-score).
Tested on: HeLa MZ
Assay: filipin (cholesterol) integrated intensity within LBPA endosomes, Z-score; higher = more cholesterol in LBPA endosomes
Details: compound concentration in added solution (µM; 5 µl added to 20 µl cells): 10; 18 h
Where a name gives a salt, the structure may show the parent alone.
Response field accepts a number only; no unit should be typed.

| molecule | filipin (z-score) |
| --- | --- |
| C1N2CN3CN1CN(C2)C3 | -0.0431 |
| Nc1nc2c(ncn2COC(CO)CO)c(=O)[nH]1 | -0.411 |
| CN1CCN(C(c2ccccc2)c2ccc(Cl)cc2)CC1 (stereo not drawn) [Chlorcyclizine hydrochloride] | 0.687 |
| CC[C@@H](CO)NCCN[C@@H](CC)CO [Ethambutol dihydrochloride] | -0.483 |
| CCOCCn1c(N2CCCN(C)CC2)nc2ccccc21 | -0.461 |
| c1cnc(N2CCN(Cc3ccc4c(c3)OCO4)CC2)nc1 [Piribedil hydrochloride] | 1.55 |
| C[C@@H]1CCC[C@H](C)N1NC(=O)c1ccc(Cl)c(S(N)(=O)=O)c1 [Clopamide] | -0.648 |

Next molecule, filipin (z-score) to be filled in.
Entry under review: "CC[C@H](C)[C@H](N)C1=N[C@H](C(=O)N[C@@H](CC(C)C)C(=O)N[C@H](CCC(=O)O)C(=O)N[C@H](C(=O)N[C@H]2CCCCNC(=O)[C@H](CC(N)=O)NC(=O)[C@@H](CC(=O)O)NC(=O)[C@H](Cc3cnc[nH]3)NC(=O)[C@@H](Cc3ccccc3)NC(=O)[C@H]([C@@H](C)CC)NC(=O)[C@@H](CCCN)NC2=O)[C@@H](C)CC)CS1" . Reported filipin (z-score)?
-0.388

----------
Test system: A431
Experiment: whole-cell filipin (free cholesterol) integrated intensity, Z-score; higher = more cholesterol staining
Details: compound concentration in added solution (µM; 5 µl added to 20 µl cells): 10; 18 h
Counter-ions that a name gives are not always drawn.
Listed here are compounds together with their documented whole-cell filipin (z-score).
Response field accepts a number only; no unit should be typed.

Observe how each entry below is paired with its result.
| compound | tested_target | whole-cell filipin (z-score) |
| --- | --- | --- |
| CN(C)[C@@H]1C(O)=C(C(N)=O)C(=O)[C@@]2(O)C(O)=C3C(=O)c4c(O)cccc4[C@@](C)(O)[C@H]3[C@H](O)[C@@H]12 [Oxytetracycline dihydrate] | A431 | -0.872 |
| COc1ccc(CC(C)NCC(O)c2ccc(O)c(NC=O)c2)cc1 (stereo unspecified) [Formoterol fumarate] | A431 | 0.171 |
| Clc1ccc(COC(Cn2ccnc2)c2ccc(Cl)cc2Cl)cc1 (stereo unspecified) [Econazole nitrate] | A431 | 0.484 |
| CC(=O)O[C@H]1C[C@@]2(C)[C@@H](C[C@@H](O)[C@H]3[C@@]4(C)CC[C@@H](O)[C@@H](C)[C@@H]4CC[C@@]32C)/C1=C(\CCC=C(C)C)C(=O)O [Fusidic acid sodium salt] | A431 | -0.581 |
| Cn1c(=O)c2[nH]cnc2n(C)c1=O | A431 | -0.204 |

Next compound, whole-cell filipin (z-score) to be filled in.
Entry under review: "CO[C@H]1/C=C/O[C@@]2(C)Oc3c(C)c(O)c4c(O)c(c(/C=N/N5CCN(C)CC5)c(O)c4c3C2=O)NC(=O)/C(C)=C\C=C\[C@H](C)[C@H](O)[C@@H](C)[C@@H](O)[C@@H](C)[C@H](OC(C)=O)[C@@H]1C" . Reported whole-cell filipin (z-score)?
-0.651

----------
Test system: HeLa MZ
Assay: LBPA endosome anti-LBPA integrated intensity (sum per cell), Z-score; higher = more LBPA staining
Settings: compound concentration in added solution (µM; 5 µl added to 20 µl cells): 10; 18 h
Listed here are molecules together with their documented LBPA endosome anti-LBPA integrated intensity (z-score).
Response field accepts a number only; no unit should be typed.

| molecule | readout_number |
| --- | --- |
| CC(C)(C#N)c1cc(Cn2cncn2)cc(C(C)(C)C#N)c1 [Anastrozole] | -1.31 |
| Clc1ccc(Nc2nnc(Cc3ccncc3)c3ccccc23)cc1 [Vatalanib] | -0.947 |
| CCCCOC(=O)c1ccc(N)cc1 [Butamben] | 0.449 |
| CC(C)Cn1cnc2c(N)nc3ccccc3c21 [Imiquimod] | 0.531 |

Reported LBPA endosome anti-LBPA integrated intensity (z-score) for HeLa MZ, given COc1c(N2CCNC(C)C2)c(F)cc2c(=O)c(C(=O)O)cn(C3CC3)c12 (stereo not given) [Gatifloxacin] ?
0.0619

----------
Tested on: HeLa MZ
Assay: filipin (cholesterol) integrated intensity within LBPA endosomes, Z-score; higher = more cholesterol in LBPA endosomes
Conditions: compound concentration in added solution (µM; 5 µl added to 20 µl cells): 10; 18 h
Counter-ions that a name gives are not always drawn.
Binary call on filipin (z-score): rule met from -0.3 upward, rule not met beneath that.

Here are 5 molecules together with their reported answers.
| molecule | group_label |
| --- | --- |
| CN(C)[C@@H]1C(O)=C(C(N)=O)C(=O)[C@@]2(O)C(O)=C3C(=O)c4c(O)cccc4[C@@](C)(O)[C@H]3[C@H](O)[C@@H]12 [Oxytetracycline dihydrate] | rule not met |
| CC(=O)OCC(=O)[C@@]12N=C(C)O[C@@H]1C[C@H]1[C@@H]3CCC4=CC(=O)C=C[C@]4(C)[C@H]3[C@@H](O)C[C@@]12C | rule met |
| COc1cc2nc(N3CCN(C(=O)C4CCCO4)CC3)nc(N)c2cc1OC (stereo not drawn) [Terazosin hydrochloride] | rule met |
| Cc1[nH]c(=O)c(C#N)cc1-c1ccncc1 | rule not met |
| Nc1ccc(C(=O)O)c(O)c1 | rule not met |

Does filipin (z-score) meet or surpass -0.3 for "COc1cc(NS(=O)(=O)c2ccc(N)cc2)ncn1" ?
rule not met

Now give it for COC(=O)C1=C(C)NC(C)=C(C(=O)OC(C)C)C1c1cccc2nonc12 (stereo not drawn) too.
rule met

Now give it for "CCn1nc(C(=O)O)c(=O)c2cc3c(cc21)OCO3" too.
rule not met

----------
System: HeLa MZ
Experiment: LBPA endosome anti-LBPA integrated intensity (sum per cell), Z-score; higher = more LBPA staining
Settings: compound concentration in added solution (µM; 5 µl added to 20 µl cells): 10; 18 h
Counter-ions that a name gives are not always drawn.
Binary call on LBPA endosome anti-LBPA integrated intensity (z-score): class 1 from -0.1 upward, class 0 beneath that.

| compound | group_label |
| --- | --- |
| CC(C)(O)c1ccccc1CC[C@@H](SCC1(CC(=O)O)CC1)c1cccc(/C=C/c2ccc3ccc(Cl)cc3n2)c1 | class 1 |

Does LBPA endosome anti-LBPA integrated intensity (z-score) meet or surpass -0.1 for NCc1ccc(S(N)(=O)=O)cc1 [Mafenide hydrochloride] ?
class 0

Now give it for NC(=O)c1cnccn1 [Pyrazinamide] too.
class 0

Now give it for CN(C)CCC=C1c2ccccc2CCc2ccccc21 [Amitryptiline hydrochloride] too.
class 1

Now give it for Cc1cnc(C(=O)NCCc2ccc(S(=O)(=O)NC(=O)NC3CCCCC3)cc2)cn1 [Glipizide] too.
class 1

----------
Tested on: HeLa MZ
Test: whole-cell filipin (free cholesterol) integrated intensity, Z-score; higher = more cholesterol staining
Settings: compound concentration in added solution (µM; 5 µl added to 20 µl cells): 10; 18 h
Structures can show the parent of a compound that is named as a salt.
Listed here are compounds together with their documented whole-cell filipin (z-score).
Response field accepts a number only; no unit should be typed.

| compound | readout_number |
| --- | --- |
| OC(CCN1CCCCC1)(c1ccccc1)c1ccccc1 [Pridinol methanesulfonate salt] | -0.508 |
| CCn1cc(C(=O)O)c(=O)c2ccc(C)nc21 [Nalidixic acid sodium salt] | -0.298 |
| COCCOC(=O)C1=C(C)NC(C)=C(C(=O)OC(C)C)C1c1cccc([N+](=O)[O-])c1 (stereo not given) | 0.629 |
| CS(=O)(=O)OCCCCOS(C)(=O)=O | 0.544 |
| CC[N+](C)(CC)CCC[n+]1c(-c2ccccc2)c2cc(N)ccc2c2ccc(N)cc21 [Propidium iodide] | -0.836 |

Reported whole-cell filipin (z-score) for HeLa MZ, given "Clc1cnccn1" ?
-0.365

Now give it for "C[C@]12C[C@H](O)[C@H]3[C@@H](CCC4=CC(=O)CC[C@@]43C)[C@@H]1CC[C@@H]2C(=O)CO" too.
-0.633

Now give it for "CC[C@H]1OC(=O)C[C@@H](O)[C@H](C)[C@@H](O[C@@H]2O[C@H](C)[C@@H](O[C@H]3C[C@@](C)(O)[C@@H](O)[C@H](C)O3)[C@H](N(C)C)[C@H]2O)[C@@H](CC=O)C[C@@H](C)C(=O)/C=C/C(C)=C/[C@@H]1CO[C@@H]1O[C@H](C)[C@@H](O)[C@@H](OC)[C@H]1OC" too.
-0.339

Now give it for CCCCN1CCCCC1C(=O)Nc1c(C)cccc1C (stereo not given) [Bupivacaine hydrochloride] too.
-0.969

Now give it for Cc1c(OCC(F)(F)F)ccnc1C[S+]([O-])c1nc2ccccc2[nH]1 (stereo not given) too.
0.176
